system: HCT-116; experiment: Antiproliferative activity against human HCT-116 cells assessed as inhibition of cell proliferation measured by MTT assay; type: functional, cell-based
ASSAY READOUT: IC50 (µM)

For orientation, consider the following solved cases.
[
  {
    "STRUCTURE STRING": "Nc1nc(-c2ccc([N+](=O)[O-])cc2)cc(-c2cnn(-c3ccccc3)n2)n1",
    "ASSAY READOUT": "IC50",
    "OBSERVED RESULT": 133
  },
  {
    "STRUCTURE STRING": "Nc1nc(-c2ccccc2)cc(-c2ccc[nH]2)n1",
    "ASSAY READOUT": "IC50",
    "OBSERVED RESULT": 55.5
  },
  {
    "STRUCTURE STRING": "Nc1nc(-c2ccccc2)cc(-c2cnn(-c3ccccc3)n2)n1",
    "ASSAY READOUT": "IC50",
    "OBSERVED RESULT": 120
  }
]

1. Nc1ccc(-c2cc(-c3cnn(-c4ccccc4)n3)nc(N)n2)cc1
2. Nc1nc(-c2ccccc2)cc(-c2cccs2)n1
Of 1 and 2 , which shows the smaller IC50 value? Kindly state the label of the option you pick. 2
(2: 57 µM, 1: 95.3 µM)
